Where do the numbers come from? From the supplement of paper PMC10724198.

system: Saccharomyces cerevisiae; experiment: protein stability index of tFT-peptide fusion (C-terminal peptide) (PSI (0-1 scale)); higher = more stable (slower turnover); settings: genetic background: wild type; temperature: 30 C
Exercise: for every item that follows, state its recorded protein stability index.
Answer with the value's number alone.

Task: Identify the reported protein stability index for the following entry. EHTILSDSDETH [RIM15 C-terminal 12 aa]
Output: 0.717

Task: Determine its reported protein stability index: GDTLYEEFGISK [ARO8 C-terminal 12 aa]
Output: 0.712

Task: Give protein stability index for the following sequence: LDISASLEKIAT [FMP52 C-terminal 12 aa]
Output: 0.682

Task: Note down protein stability index recorded for SYKDTKRWMFKK [PSF3 C-terminal 12 aa]
Output: 0.715

Task: Supply reported protein stability index belonging to this sequence: KKFIYQQLDMFS [YOL024W C-terminal 12 aa]
Output: 0.7

* * *

system: Saccharomyces cerevisiae; assay: protein stability index of tFT-peptide fusion (C-terminal peptide) (PSI (0-1 scale)); higher = more stable (slower turnover); conditions: genetic background: wild type; temperature: 30 C
Decision: protein stability index compared against 0.7; not below it gives t, below it gives f.

Task: Entry `KKEKNQEKRKKE` : is its protein stability index no less than 0.7?
Output: f

Task: Given the entry `TQLSSVVVGGRR` , answer whether its protein stability index meets or surpasses 0.7.
Output: f

Task: I'd appreciate it if you could say whether `RVTYWKAVLVRL` has protein stability index at least equal to 0.7.
Output: f

Task: # bool: protein stability index of `EWCQVGGRGFLG` >= 0.7
Output: t

Task: Does `SPAPSFLPLTPS` have a reported protein stability index of at least 0.7?
Output: f

Task: State whether the measured protein stability index reaches 0.7, counting equality as reaching it, for `GSVCVVCWELVV`
Output: f

* * *

tested on: Saccharomyces cerevisiae; assay: protein stability index of tFT-peptide fusion (C-terminal peptide) (PSI (0-1 scale)); higher = more stable (slower turnover); details: genetic background: das1 deletion; temperature: 30 C
reported-property: protein stability index
Write the number on its own, no unit after it.

Task: For MNEIDARIFEYK [SPO11 C-terminal 12 aa] , write its protein stability index.
Output: 0.764

Task: Give reported protein stability index value for SGFQFPFFGEEK [MRPL7 C-terminal 12 aa]
Output: 0.717

Task: Output protein stability index of DEEKQLSLSDMI [YOR186W C-terminal 12 aa]
Output: 0.692

Task: // fetch protein stability index given entry KRHLTPAVELDY [PRP40 C-terminal 12 aa]
Output: 0.671

Task: Indicate the recorded protein stability index value for this sequence: KEFQNSDIADLY [SGV1 C-terminal 12 aa]
Output: 0.714

Task: For the sequence TKKANILDPDYL [FLC1 C-terminal 12 aa] , give its reported protein stability index.
Output: 0.685

* * *

test system: Saccharomyces cerevisiae; experiment: protein stability index of tFT-peptide fusion (C-terminal peptide) (PSI (0-1 scale)); higher = more stable (slower turnover); conditions: genetic background: wild type; temperature: 30 C
Could you please report measured protein stability index for the items listed next?
Hey, just send me the number, nothing else.

Task: # return recorded protein stability index for input `CIRPPPPSPKLM`
Output: 0.694

Task: Identify protein stability index associated with the sequence `ALCLDGCSLGEF`
Output: 0.704

Task: Item `RKNKQVDLCHRE` : provide protein stability index
Output: 0.676

Task: Specify measured protein stability index for `PPLPLPPPHPPP` .
Output: 0.503

Task: Report measured protein stability index; entry is `LSPCSDFSTFDA`
Output: 0.771

Task: Using the record for `VWCWCGWGVWGL` , state its measured protein stability index.
Output: 0.629

Task: Look up and report measured protein stability index for this entry: `ETEKHGIRRRQG`
Output: 0.644

Task: Recall and state the measured protein stability index for `PPPSPPTAPAAP` .
Output: 0.713

Task: Return protein stability index (reported value) for this sequence: `SRSPLCRCAPSF`
Output: 0.653

Task: State its protein stability index: `PPPPALIHSRPP`
Output: 0.741

Task: Write down protein stability index measured for item `ENKTNKEKQQKQ`
Output: 0.691

Task: Supply recorded protein stability index for `KKIEHRVLNELK` here.
Output: 0.629

Task: Please report protein stability index for the following sequence: `SRSGLSPTLPVF`
Output: 0.699

Task: For the sequence `AQPIPTLYRAPP` , give its measured protein stability index value.
Output: 0.729

Task: # return recorded protein stability index for entry `PGALLPALPPPP`
Output: 0.71

Task: Give recorded protein stability index. `YRQIIPSFTLGL`
Output: 0.715

Task: Return protein stability index (reported value) for this sequence: `MGDGRRMDGVWG`
Output: 0.6

Task: Tell me protein stability index reported for `PPLPPPLSLPPP`
Output: 0.657

Task: Using known records, supply protein stability index for `FNFSSGLTGSWL`
Output: 0.763

Task: Return protein stability index for the following sequence: `HPVLGPNRVINI`
Output: 0.71

* * *

test system: Saccharomyces cerevisiae; assay: protein stability index of tFT-peptide fusion (C-terminal peptide) (PSI (0-1 scale)); higher = more stable (slower turnover); conditions: genetic background: wild type; temperature: 30 C
Rule: protein stability index under 0.7 gives Criterion not met, otherwise Criterion met.

Task: // inclusive: protein stability index at least 0.7? input: `SRAGAVLSGIES`
Output: Criterion not met

Task: Does the reported protein stability index for `SLFPHIFFFFFA` fall at or above the 0.7 mark?
Output: Criterion not met

Task: Say whether `HRSIDEGCSCCD` shows protein stability index of 0.7 or more.
Output: Criterion not met

Task: Reported protein stability index reaches at least 0.7 for `EDRSITYNALIL` ?
Output: Criterion not met

Task: # bool: protein stability index of `IVLCVFTVDSDF` >= 0.7
Output: Criterion not met

Task: State whether the measured protein stability index reaches 0.7, counting equality as reaching it, for `SMSPAGARCLPR`
Output: Criterion met

Task: Please indicate if the recorded protein stability index for `PPVRPRPDPACR` meets or exceeds 0.7.
Output: Criterion met

Task: Quick check, protein stability index >= 0.7? `GFGEFVLSSGWG`
Output: Criterion met

Task: Is protein stability index at least 0.7? Consider `SSHLILTVAPSA`
Output: Criterion not met

Task: Check if protein stability index >= 0.7 (inclusive). Item: `LLATCGAIHTFC`
Output: Criterion not met

Task: Textbook exercise: given the entry `RVGVEYGETGGG` , state whether its protein stability index is greater than or equal to 0.7.
Output: Criterion met

* * *

tested on: Saccharomyces cerevisiae; test: protein stability index of tFT-peptide fusion (C-terminal peptide) (PSI (0-1 scale)); higher = more stable (slower turnover); settings: genetic background: wild type; temperature: 30 C
reported-property: protein stability index
Please give only the number in your answer, with no unit.

Task: Provide one value: measured protein stability index of `LRSARPALLCTP`
Output: 0.678

Task: Return protein stability index (reported value) for this sequence: `QVVIGRLSSQVG`
Output: 0.664

Task: Find the measured protein stability index of `LPLLALLDVPLP` and report it.
Output: 0.683

Task: Determine from records and report protein stability index for `RSLGFPLRNVTH`
Output: 0.655

Task: Return value of protein stability index for input `DSCGVFLGDFFQ` , no commentary.
Output: 0.727

Task: Answer with the recorded protein stability index of `KSKTRTKLYSRN` only.
Output: 0.642

Task: Tell me protein stability index reported for `WFCCAQRGVIVG`
Output: 0.405

Task: Kindly indicate its recorded protein stability index. Item: `PYTPPTSSRDRS`
Output: 0.661

* * *

system: Saccharomyces cerevisiae; assay: protein stability index of tFT-peptide fusion (C-terminal peptide) (PSI (0-1 scale)); higher = more stable (slower turnover); conditions: genetic background: doa10 deletion; temperature: 30 C
# binarize protein stability index: threshold 0.4 inclusive, high side Fulfilled, low side Not fulfilled

Task: Determine whether measured protein stability index meets or exceeds 0.4 for `HRHCVSSYQKVS`
Output: Not fulfilled

Task: Item `QERKILGRIKQA` with protein stability index of 0.4 or above?
Output: Not fulfilled

Task: For this sequence, is measured protein stability index 0.4 or higher? `WVLFRLPYQFFS`
Output: Not fulfilled

Task: In plain terms: is recorded protein stability index at least 0.4 for `LFVLVLLCWMLT` ?
Output: Not fulfilled

Task: Could you verify whether the entry `VLVVRVLLSDLV` shows protein stability index of no less than 0.4?
Output: Not fulfilled

Task: Hi, just wondering whether `LYLFKVLFFRVF` shows protein stability index of 0.4 or higher.
Output: Not fulfilled

Task: Quick check, protein stability index >= 0.4? `VVWIQRTVLSLI`
Output: Not fulfilled

Task: Evaluate `FLFLSPLALHVS` : protein stability index at minimum 0.4?
Output: Not fulfilled

Task: Does protein stability index meet or surpass 0.4 for `RVTRLDAIYFRI` ?
Output: Fulfilled

Task: Say whether `PHGLKPHCPTPS` shows protein stability index of 0.4 or more.
Output: Fulfilled

Task: Does the sequence `VECPWFCLGVLA` have recorded protein stability index that is 0.4 or more?
Output: Not fulfilled

Task: Could you please find out whether `AEVLCEIVIALR` has protein stability index that meets 0.4 or exceeds it?
Output: Fulfilled

Task: Reported protein stability index at or above 0.4? `HLYPFPSLHFAF`
Output: Fulfilled

Task: Check the entry `YCAMVAVGVVGG` : does protein stability index equal or exceed 0.4?
Output: Not fulfilled

Task: Check this sequence for protein stability index at or above 0.4: `IVSFRLDLSLAV`
Output: Fulfilled

Task: Kindly determine if protein stability index recorded for `PRHVLWLRRLLF` is above or exactly 0.4.
Output: Not fulfilled

Task: Reported protein stability index reaches at least 0.4 for `GVVRKLCHWVVA` ?
Output: Not fulfilled

Task: Hi team, for `PLSNLCRVLTFI` , is the recorded protein stability index at or above 0.4?
Output: Not fulfilled

Task: Given `CVLVLLLRLAFL` , state whether its protein stability index is at least 0.4.
Output: Fulfilled

Task: State whether the measured protein stability index reaches 0.4, counting equality as reaching it, for `SCLVLDYCFSLV`
Output: Fulfilled

Task: In plain terms: is recorded protein stability index at least 0.4 for `PRLRPQTVAFLS` ?
Output: Not fulfilled

Task: Determine whether measured protein stability index meets or exceeds 0.4 for `YMPKHKIQKLMQ`
Output: Fulfilled

Task: // inclusive: protein stability index at least 0.4? input: `PPPPLATTSAPL`
Output: Fulfilled

Task: Please indicate if the recorded protein stability index for `CTAWWVKGVAVK` meets or exceeds 0.4.
Output: Fulfilled

Task: Could you verify whether the entry `CFSLLFYTLSLL` shows protein stability index of no less than 0.4?
Output: Not fulfilled

Task: Say whether `LVVAVLKIIMSS` shows protein stability index of 0.4 or more.
Output: Not fulfilled

Task: I'd appreciate it if you could say whether `RVSIIYLGVLIS` has protein stability index at least equal to 0.4.
Output: Not fulfilled

Task: Does the sequence `FFTLSTVKLLRV` have recorded protein stability index that is 0.4 or more?
Output: Not fulfilled

Task: Item `INKRDARIHLLM` with protein stability index of 0.4 or above?
Output: Not fulfilled

Task: Could you verify whether the entry `TPRQYVVSLSLC` shows protein stability index of no less than 0.4?
Output: Not fulfilled

Task: API: above_or_equal(metric=protein stability index, cutoff=0.4) for item `HRDVISVVRNMS`
Output: Not fulfilled

Task: Quick check, protein stability index >= 0.4? `RITGCWKTYKMQ`
Output: Not fulfilled

Task: Form field: protein stability index at least 0.4? Entry: `RNCSFRRIQLAM`
Output: Not fulfilled

Task: protein stability index >= 0.4 for `LRRVHRIKLQVC` ?
Output: Not fulfilled

Task: Does the sequence `IHIFIIFRVQWK` have recorded protein stability index that is 0.4 or more?
Output: Not fulfilled

Task: Is protein stability index for `LRVAWVCISIVA` at or above 0.4?
Output: Not fulfilled
